Molecular target: T1, Anti-CD28 Fab (SEQ ID NOs: 696, 697)
T1 construct: In the phage ELISA the Fab was biotinylated and captured on neutravidin coated plates
T1 sequence (VH, as listed by the source, chain 1 of 2): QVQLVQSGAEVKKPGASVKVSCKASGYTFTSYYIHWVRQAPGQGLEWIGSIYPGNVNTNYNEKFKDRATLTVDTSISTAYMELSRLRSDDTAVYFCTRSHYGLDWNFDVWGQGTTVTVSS
T1 sequence (VL, as listed by the source, chain 2 of 2): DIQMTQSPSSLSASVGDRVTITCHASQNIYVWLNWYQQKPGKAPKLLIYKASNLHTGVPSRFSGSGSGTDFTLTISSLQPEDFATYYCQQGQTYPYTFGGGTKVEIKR
Assay: phage ELISA; biotinylated anti-CD28 Fab on neutravidin plate, clonal phage supernatant, anti-M13 HRP
Provide the recorded Anti-CD28 Fab signal (phage binding ELISA) for the entries that follow.
Give bare numbers.

| BINDER | MEASURED_VALUE |
| --- | --- |
| YCDGHLEEYKQKCL (Clonal phage of the Peptide-87 library, tested as crude phage supernatant; not shown: pIII of the bacteriophage to which the peptide is fused) [Phage-615] | 2.18 |

# per-item lookup of Anti-CD28 Fab signal (phage binding ELISA); items listed below
1. YCDGHLPQYKAKCL (Clonal phage of the Peptide-87 library, tested as crude phage supernatant; not shown: pIII of the bacteriophage to which the peptide is fused) [Phage-610]
2. YCDGHLPEYMHKCL (Clonal phage of the Peptide-87 library, tested as crude phage supernatant; not shown: pIII of the bacteriophage to which the peptide is fused) [Phage-608]

Data returned:
1. 2.19
2. 2.19

# per-item lookup of Anti-CD28 Fab signal (phage binding ELISA); items listed below
1. YCEGHAEEYMQKCL (Clonal phage of the Peptide-87 library, tested as crude phage supernatant; not shown: pIII of the bacteriophage to which the peptide is fused) [Phage-613]
2. YCMGHLPQYMQKCL (Clonal phage of the Peptide-87 library, tested as crude phage supernatant; not shown: pIII of the bacteriophage to which the peptide is fused) [Phage-616]

Data returned:
[2.18, 2.18]

Data provenance: patent US20260242478A1
